# Experiment Description: Human HepG2 cell viability assay in 384 well format
# Format: toxicity, cell-based
# Set-up: dose 125 nL, time 70.5 hour; concentration not given beside the values
# Assay Context: HepG2 cells, read-out: Inhibition
Value Kind: cytotoxicity at 70.5 h (%)

{"columns": ["Compound", "Recorded Result"],
 "data": [
  ["O=C(CS(=O)(=O)c1cccc[n+]1[O-])NC1CCCc2ccccc21 (stereo unspecified)", 1.9],
  ["O=C(CN1CCN(CCO)CC1)NCc1ccc(Cl)s1", -1.03],
  ["O=C1CC[C@H]2[C@H](CCN2C(=O)C2CCCO2)N1CCN1CCCC1 (stereo partly specified)", -21.6],
  ["CCn1cc(S(=O)(=O)N2CCC(C3CCCCN(C)C3=O)CC2)c(C)n1 (stereo unspecified)", 7.12],
  ["CN1CCOC(CNCCc2ccccn2)C1 (stereo unspecified)", -1.1],
  ["O=S(=O)(c1cccs1)N1CCC(c2nc(-c3cccs3)no2)CC1", 1.6]
]}
